tested on: REH; assay: selective drug sensitivity score (sDSS, relative to normal bone marrow) (sDSS (score)); higher = more potent and effective on the cell line relative to normal bone marrow cells; conditions: 72 h;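 also: ALL cell lines in 384-well plates, five doses spanning 10,000-fold, each plate scaled between vehicle and 100 µmol/L benzalkonium chloride controls, sDSS an adapted area-under-curve metric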
Please note: satisfied applies when selective drug sensitivity score is 10 or greater, and not satisfied applies otherwise.

{"compound": "Clc1ccc(C(c2ccccc2Cl)C(Cl)Cl)cc1 (stereo unspecified) [Mitotane] (top concentration 10000 nM)", "assigned-label": "not satisfied"}

For this compound, is measured selective drug sensitivity score 10 or higher? CC(=O)O[C@@]12CO[C@@H]1C[C@H](O)[C@@]1(C)C(=O)[C@H](O)C3=C(C)[C@@H](OC(=O)[C@H](O)[C@@H](NC(=O)OC(C)(C)C)c4ccccc4)C[C@@](O)([C@@H](OC(=O)c4ccccc4)[C@H]21)C3(C)C [Docetaxel] (top concentration 1000 nM)
satisfied

For this compound, is measured selective drug sensitivity score 10 or higher? CN1CCN(C(=O)c2ccc3cc(CCNc4ncnc5ccc(C#N)cc45)ccc3c2)CC1 [Senexin_B] (top concentration 1000 nM)
not satisfied

For this compound, is measured selective drug sensitivity score 10 or higher? CCN(CC)CCNC(=O)c1c(C)[nH]c(/C=C2\C(=O)Nc3ccc(F)cc32)c1C [Sunitinib] (top concentration 1000 nM)
not satisfied

For this compound, is measured selective drug sensitivity score 10 or higher? C[C@@H]1COCCN1c1cc(C2([S@](C)(=N)=O)CC2)nc(-c2cc[nH]c3nccc2-3)n1 [AZD6738] (top concentration 25000 nM)
satisfied

For this compound, is measured selective drug sensitivity score 10 or higher? COc1cccc2c1C(=O)c1c(O)c3c(c(O)c1C2=O)C[C@@](O)(C(=O)CO)C[C@@H]3O[C@H]1C[C@H](N)[C@@H](O)[C@H](C)O1 [Epirubicin] (top concentration 1000 nM)
satisfied

----------
Overview of reported selective drug sensitivity score across a group of compounds:
tested on: MN-60; assay: selective drug sensitivity score (sDSS, relative to normal bone marrow) (sDSS (score)); higher = more potent and effective on the cell line relative to normal bone marrow cells; details: 72 h
Response field accepts a number only; no unit should be typed.

Look over these answered cases.
{"compound": "C#Cc1cccc(Nc2ncnc3cc(OCCOC)c(OCCOC)cc23)c1 [Erlotinib] (top concentration 10000 nM)", "measured-number": 0.96}
{"compound": "CCCCNc1ncc(C(=O)NCc2ccc(-n3ccnc3)cc2)c(NC2CCC(O)CC2)n1 (configuration not stated) [UNC2881] (top concentration 2500 nM)", "measured-number": 0}

Sample COc1cc(N2CCN(C)CC2)ccc1Nc1nccc(-c2cn(C)c3cnccc23)n1 [AZ191] (top concentration 10000 nM) — what was its selective drug sensitivity score?
-1.92

Sample CC(C)[C@H](C(=O)Nc1ccc(C(=O)NO)cc1)c1ccccc1 [AR-42] (top concentration 10000 nM) — what was its selective drug sensitivity score?
1.48

Sample C[C@H]1C[C@@H](n2c(Nc3ccc(OC(F)(F)F)cc3)nc3cc(CCC(=O)O)ccc32)CC(C)(C)C1 (top concentration 10000 nM) — what was its selective drug sensitivity score?
-0.04

Sample Cc1ncc(Cl)cc1NCc1ccc(C(=O)N[C@@H](CC2CCCC2)C(=O)NC2CC2)s1 (top concentration 5000 nM) — what was its selective drug sensitivity score?
-0.94

Sample Cn1cc(CNCC2CCN(c3ncc(C(=O)NO)cn3)CC2)c2ccccc21 [Quisinostat] (top concentration 1000 nM) — what was its selective drug sensitivity score?
-2.02

----------
test system: RCH-ACV; experiment: selective drug sensitivity score (sDSS, relative to normal bone marrow) (sDSS (score)); higher = more potent and effective on the cell line relative to normal bone marrow cells; conditions: 72 h
measured-parameter: selective drug sensitivity score
Response field accepts a number only; no unit should be typed.

{"compound": "Nc1ncnc2c1nc(N)n2[C@@H]1O[C@H](CO)[C@@H](O)[C@H]1O [8-amino-adenosine] (top concentration 50000 nM)", "selective drug sensitivity score": 6.68}
{"compound": "CC1(C)CCC(c2ccc(Cl)cc2)=C(CN2CCN(c3ccc(C(=O)NS(=O)(=O)c4ccc(N[C@H](CCN5CCOCC5)CSc5ccccc5)c(S(=O)(=O)C(F)(F)F)c4)cc3)CC2)C1 [Navitoclax] (top concentration 10000 nM)", "selective drug sensitivity score": 3.32}
{"compound": "COc1cc2c(Nc3ccc(Cl)c(Cl)c3F)ncnc2cc1OC[C@@H]1C[C@@H]2CN(C)C[C@@H]2C1 [Tesevatinib] (top concentration 1000 nM)", "selective drug sensitivity score": 0.64}
{"compound": "Cc1[nH]nc(C(F)(F)F)c1Cc1sc2c(c1C(=O)N1C[C@](C)(O)CO1)c(=O)n(C)c(=O)n2C(C)C [AZD3965] (top concentration 1000 nM)", "selective drug sensitivity score": 0}
{"compound": "C[C@H]1CN(C2COC2)CCN1c1ccc(Nc2cc(-c3ccnc(N4CCn5c(cc6c5CC(C)(C)C6)C4=O)c3CO)cn(C)c2=O)nc1 [GDC-0853] (top concentration 1000 nM)", "selective drug sensitivity score": 0}

Sample Cn1ncc(Cl)c1-c1cc(C(=O)N[C@H](CN)Cc2ccc(F)c(F)c2)oc1Cl [Uprosertib] (top concentration 10000 nM) — what was its selective drug sensitivity score?
8.3

Sample CCS(=O)(=O)N1CCN(c2ccc(Nc3ncc(C(N)=O)c(NC4CC4)n3)cc2)CC1 [Cerdulatinib] (top concentration 10000 nM) — what was its selective drug sensitivity score?
13.3

Sample Cn1cc(-c2ccc(F)c(C(F)(F)F)c2)nc1C1CCN(c2ncnc3[nH]ncc23)CC1 (top concentration 10000 nM) — what was its selective drug sensitivity score?
8.26

Sample CC(O)c1cc(C(=O)N[C@@H](C)Cn2ccc(-c3ccc(C#N)c(Cl)c3)n2)n[nH]1 (stereo partly specified) [ODM-201] (top concentration 2500 nM) — what was its selective drug sensitivity score?
1.12

Sample CN(C)C1CCN(C(=O)c2ccc(NC(=O)Nc3ccc(-c4nc(N5CCOCC5)nc(N5CCOCC5)n4)cc3)cc2)CC1 [Gedatolisib] (top concentration 1000 nM) — what was its selective drug sensitivity score?
17.5

Sample CCN(CC)CCNC(=O)c1c(C)[nH]c(/C=C2\C(=O)Nc3ccc(-c4csc(-c5ccccc5)n4)cc32)c1C [Amcasertib] (top concentration 10000 nM) — what was its selective drug sensitivity score?
3.3

----------
Overview of reported selective drug sensitivity score across a group of compounds:
tested on: HPB-ALL; assay: selective drug sensitivity score (sDSS, relative to normal bone marrow) (sDSS (score)); higher = more potent and effective on the cell line relative to normal bone marrow cells; conditions: 72 h
Response field accepts a number only; no unit should be typed.

Look over these answered cases.
{"compound": "CO[C@@H]1[C@H](N(C)C(=O)c2ccccc2)C[C@H]2O[C@]1(C)n1c3ccccc3c3c4c(c5c6ccccc6n2c5c31)C(=O)NC4 [Midostaurin] (top concentration 10000 nM)", "tgt": "HPB-ALL", "measured-number": 4.36}
{"compound": "C[C@@H](Nc1cc(F)cc(F)c1)c1cc(C(=O)N(C)C)cc2c(=O)cc(N3CCOCC3)oc12 [AZD-8186] (top concentration 1000 nM)", "tgt": "HPB-ALL", "measured-number": 1.94}
{"compound": "CCCCCCCCc1ccc(CCC(N)(CO)CO)cc1 [Fingolimod] (top concentration 10000 nM)", "tgt": "HPB-ALL", "measured-number": 1.68}

Now look at this one.
Sample CC(O)(CS(=O)(=O)c1ccc(F)cc1)C(=O)Nc1ccc(C#N)c(C(F)(F)F)c1 (centres undefined) [Bicalutamide] (top concentration 10000 nM) — what was its selective drug sensitivity score?
-1.68

----------
Overview of reported selective drug sensitivity score across a group of molecules:
system: HPB-ALL; test: selective drug sensitivity score (sDSS, relative to normal bone marrow) (sDSS (score)); higher = more potent and effective on the cell line relative to normal bone marrow cells; settings: 72 h
Response field accepts a number only; no unit should be typed.

Look over these answered cases.
{"molecule": "CN1C(=O)N[C@H](Cc2c[nH]c3c(Cl)cccc23)C1=O [Necrostatin_2] (top concentration 10000 nM)", "measured-parameter": "selective drug sensitivity score", "measured-number": -0.08}
{"molecule": "COc1cccc2c1C(=O)c1c(O)c3c(c(O)c1C2=O)C[C@@](O)(/C(CO)=N/NC(=O)CCCCCN1C(=O)C=CC1=O)C[C@@H]3O[C@H]1C[C@H](N)[C@H](O)[C@H](C)O1 [Aldoxorubicin] (top concentration 1000 nM)", "measured-parameter": "selective drug sensitivity score", "measured-number": 1.04}
{"molecule": "C[C@H]1C=C2C(=O)O[C@H]3CC[C@@H](C1)[C@@]23O [Galiellalactone] (top concentration 25000 nM)", "measured-parameter": "selective drug sensitivity score", "measured-number": 5.16}
{"molecule": "C[C@H](Nc1ncnc2nc[nH]c12)c1cc2cccc(Cl)c2c(=O)n1-c1ccccc1 [Duvelisib] (top concentration 500 nM)", "measured-parameter": "selective drug sensitivity score", "measured-number": -0.94}
{"molecule": "CCCCOc1nc(N)c2c(n1)N(Cc1cccc(CN3CCCC3)c1)CC(=O)N2 [Vesatolimod] (top concentration 10000 nM)", "measured-parameter": "selective drug sensitivity score", "measured-number": -3.52}

Sample CCN(CC)CCNC(=O)c1c(C)[nH]c(/C=C2\C(=O)Nc3ccc(-c4csc(-c5ccccc5)n4)cc32)c1C [Amcasertib] (top concentration 10000 nM) — what was its selective drug sensitivity score?
4.3

Sample Clc1ccccc1C(c1ccccc1)(c1ccccc1)n1cccn1 [TRAM-34] (top concentration 1000 nM) — what was its selective drug sensitivity score?
-0.08

Sample C[C@H]1CN(C2COC2)CCN1c1ccc(Nc2cc(-c3ccnc(N4CCn5c(cc6c5CC(C)(C)C6)C4=O)c3CO)cn(C)c2=O)nc1 [GDC-0853] (top concentration 1000 nM) — what was its selective drug sensitivity score?
0.4

Sample CC[C@@H]1C(=O)OC[C@@H]1Cc1cncn1C [Pilocarpine] (top concentration 40000 nM) — what was its selective drug sensitivity score?
7.34

Sample COc1cc2c(NC3CCN(C(C)C)CC3)nc(C3CCCCC3)nc2cc1OCCCN1CCCC1 [UNC0638] (top concentration 10000 nM) — what was its selective drug sensitivity score?
-3.44

Sample C=CC(=O)Nc1cccc(Nc2nc(Nc3ccc(N4CCN(C(C)=O)CC4)cc3OC)ncc2C(F)(F)F)c1 [Rociletinib] (top concentration 10000 nM) — what was its selective drug sensitivity score?
1.74

Sample CCN(CCO)CCCOc1ccc2c(Nc3cc(CC(=O)Nc4cccc(F)c4)[nH]n3)ncnc2c1 [AZD1152-HQPA] (top concentration 1000 nM) — what was its selective drug sensitivity score?
4.34

Sample CC[C@H](CO)Nc1nc(NCc2ccccc2)c2ncn(C(C)C)c2n1 [Seliciclib] (top concentration 10000 nM) — what was its selective drug sensitivity score?
-0.64

Sample NC1(C(=O)N[C@@H](CCO)c2ccc(Cl)cc2)CCN(c2ncnc3[nH]ccc23)CC1 [AZD-5363] (top concentration 10000 nM) — what was its selective drug sensitivity score?
1.82

Sample CC(C)(C)c1nc(-c2cccc(NS(=O)(=O)c3c(F)cccc3F)c2F)c(-c2ccnc(N)n2)s1 [Dabrafenib] (top concentration 2500 nM) — what was its selective drug sensitivity score?
2.98

Sample CCC1=C[C@@H]2CN(C1)Cc1c([nH]c3ccccc13)[C@@](C(=O)OC)(c1cc3c(cc1OC)N(C)[C@H]1[C@@](O)(C(=O)OC)[C@H](OC(C)=O)[C@]4(CC)C=CCN5CC[C@]31[C@@H]54)C2 [Vinorelbine] (top concentration 10000 nM) — what was its selective drug sensitivity score?
14.6

Sample CC(=O)O[C@H]1C(=O)[C@@]2(C)[C@H]([C@H](OC(=O)c3ccccc3)[C@]3(O)C[C@H](OC(=O)[C@H](O)[C@@H](NC(=O)c4ccccc4)c4ccccc4)C(C)=C1C3(C)C)[C@]1(OC(C)=O)CO[C@@H]1C[C@@H]2O [Paclitaxel] (top concentration 1000 nM) — what was its selective drug sensitivity score?
14.1
